Reported inhibition at 3 µM values for a set of compounds
- tgt: human neuropeptide Y5 receptor (Homo sapiens, UniProt Q15761)
- Construct: expressed in transfected cells
- Sequence (Q15761 whole entry): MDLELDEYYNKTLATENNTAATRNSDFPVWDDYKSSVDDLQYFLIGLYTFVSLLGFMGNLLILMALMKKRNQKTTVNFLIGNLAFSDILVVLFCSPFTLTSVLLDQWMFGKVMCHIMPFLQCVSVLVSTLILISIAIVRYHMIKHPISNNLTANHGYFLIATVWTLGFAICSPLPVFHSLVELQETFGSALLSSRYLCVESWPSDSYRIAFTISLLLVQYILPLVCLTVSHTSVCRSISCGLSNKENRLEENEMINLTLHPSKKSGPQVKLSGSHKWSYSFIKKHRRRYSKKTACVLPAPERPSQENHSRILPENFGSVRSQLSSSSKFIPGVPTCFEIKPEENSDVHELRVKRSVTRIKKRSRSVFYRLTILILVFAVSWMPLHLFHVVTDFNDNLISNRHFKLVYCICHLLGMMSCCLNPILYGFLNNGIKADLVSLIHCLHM
- measurement description: NPY5 HTS Centrifugation Assay: competition with 125I-PYY for binding to NPY5-transfected HEK293 cell membranes
- run parameters: 80 pM 125I-PYY, 1 hr room temperature, read-out: % Inh @ 3 uM (% Inhibition of ^125 I-PYY Binding)
Express the result in % but write the number alone.

Previously resolved entries follow.
{"compound": "CCC[C@@H]1c2ccc(OC)cc2CC[C@@H]1NC[C@H]1CC[C@H](CNS(=O)(=O)c2ccccc2)CC1 (relative stereo)", "units label": "%", "inhibition at 3 µM": 101}
{"compound": "COc1cc2c(cc1OC)C(Cc1ccccc1)C(NC[C@H]1CC[C@H](CNS(=O)(=O)c3ccccc3)CC1)CC2 (relative stereo)", "units label": "%", "inhibition at 3 µM": 99}
{"compound": "COc1ccc2c(c1)CCC(NC[C@H]1CC[C@H](CNS(=O)(=O)c3ccc(S(C)(=O)=O)cc3)CC1)C2Cc1ccccc1 (relative stereo)", "units label": "%", "inhibition at 3 µM": 90}

# inhibition at 3 µM measured on human neuropeptide Y5 receptor (Homo sapiens, UniProt Q15761) for item O=S(=O)(NC[C@H]1CC[C@H](CNC2CCc3cc(F)ccc3C2Cc2ccccc2)CC1)c1ccc(Cl)cc1Cl (stereo partly drawn) = 99

The observed inhibition at 3 µM for COc1ccc2c(c1)CCC(NC[C@H]1CC[C@H](CNS(=O)(=O)c3ccccc3)CC1)C2Cc1c(F)cccc1F (relative stereo) when tested with human neuropeptide Y5 receptor (Homo sapiens, UniProt Q15761) stands at 98

Given the compound COc1ccc2c(c1)CC[C@H](NC[C@H]1CC[C@H](CNS(=O)(=O)c3ccccc3)CC1)[C@@H]2CCCO (relative stereo) and test system human neuropeptide Y5 receptor (Homo sapiens, UniProt Q15761), the measured inhibition at 3 µM is 91

----------
- tgt: human neuropeptide Y5 receptor (Homo sapiens, UniProt Q15761)
- Construct: expressed in transfected cells
- measurement description: NPY5 HTS Centrifugation Assay: competition with 125I-PYY for binding to NPY5-transfected HEK293 cell membranes
- run parameters: 80 pM 125I-PYY, 1 hr room temperature, read-out: % Inh @ 3 uM (% Inhibition of ^125 I-PYY Binding)
property label: inhibition at 3 µM
Field: value (include unit after the number)

Some solved cases for reference:
{"compound": "COc1ccc2c(c1)CCC(NC[C@H]1CC[C@H](CNS(=O)(=O)c3ccccc3)CC1)C2Cc1ccccc1C(F)(F)F (stereo partly drawn)", "inhibition at 3 µM": "30%"}
{"compound": "COc1ccc2c(c1)CCC(NC[C@H]1CC[C@H](CNS(=O)(=O)c3ccccc3[N+](=O)[O-])CC1)C2Cc1ccc([N+](=O)[O-])cc1 (relative stereo)", "inhibition at 3 µM": "85%"}
{"compound": "COc1ccc2c(c1)CC[C@H](NCc1ccc(CNS(=O)(=O)c3ccc4ccccc4c3)cc1)[C@@H]2Cc1ccccc1 (relative stereo)", "inhibition at 3 µM": "60%"}
{"compound": "O=S(=O)(NC[C@H]1CC[C@H](CNC2CCc3cc(F)c(F)cc3C2Cc2ccccc2)CC1)c1ccccc1 (relative stereo)", "inhibition at 3 µM": "103%"}
{"compound": "COc1ccc2c(c1)CC[C@H](NCCCCCNS(=O)(=O)c1ccc3ccccc3c1)[C@@H]2Cc1ccccc1 (relative stereo)", "inhibition at 3 µM": "95%"}
{"compound": "COc1ccc2c(c1)CCC(NC[C@H]1CC[C@H](CNS(=O)(=O)c3ccc4ccccc4c3)CC1)C2Cc1ccc2ccccc2c1 (relative stereo)", "inhibition at 3 µM": "54%"}
{"compound": "COc1ccc2c(c1)CCC(NC[C@H]1CC[C@H](CNS(=O)(=O)c3ccccc3[N+](=O)[O-])CC1)C2Cc1ccccc1OC (stereo partly drawn)", "inhibition at 3 µM": "92%"}
{"compound": "C=CC[C@@H]1c2ccc(OC)cc2CC[C@@H]1NC[C@H]1CC[C@H](CNS(=O)(=O)c2ccccc2)CC1 (relative stereo)", "inhibition at 3 µM": "102%"}

Consider COc1ccc2c(c1)CCC(NC[C@H]1CC[C@H](CNS(=O)(=O)c3ccccc3Cl)CC1)C2Cc1ccccc1 (relative stereo) . Its measured inhibition at 3 µM is 99%

Reported inhibition at 3 µM of COc1cccc(CC2c3ccc(OC)cc3CCC2NC[C@H]2CC[C@H](CNS(=O)(=O)c3ccccc3)CC2)c1 (relative stereo) : 92%

get_value(item= COc1ccc2c(c1)C(Cc1ccccc1)C(NC[C@H]1CC[C@H](CNS(=O)(=O)c3ccc4ccccc4c3)CC1)CC2 (relative stereo) , readout=inhibition at 3 µM) returns 75%

// field: inhibition at 3 µM; key: COc1ccc2c(c1)CCC(NC[C@H]1CC[C@H](CNS(=O)(=O)c3cc(Cl)cc(Cl)c3)CC1)C2Cc1ccccc1 (relative stereo) ; value = 73%
